# System: Salmonella typhimurium
# experiment: Antibacterial activity against intracellular multidrug-resistant Salmonella typhimurium ATCC14028 infected in mouse RAW264.7 cells assessed as reduction in intracellular bacterial survival level by RFP staining based high-content image analysis
# Format: functional, organism-based, Salmonella enterica subsp. enterica serovar Typhimurium
# condition.details: Salmonella enterica, ATCC14028, RAW264.7
readout: pEC50
In simple prose, pEC50 is minus the logarithm base ten of a concentration in moles per litre.

mol: Clc1ccc2c(c1)C(NCCCN1CCCC1)=Nc1ccccc1O2
reported.value: 5.95
--
mol: Clc1ccc2c(c1)C(NCCCN1CCCCC1)=Nc1ccccc1O2
reported.value: 5.95
--
mol: CCCNC1=Nc2ccccc2Oc2ccc(Cl)cc21
reported.value: 4.25
--
mol: Clc1ccc2c(c1)C(NCC1CC1)=Nc1ccccc1O2
reported.value: 4.36

// moving on: another record for pEC50
compound Clc1ccc2c(c1)C(NCCN1CCOCC1)=Nc1ccccc1O2 , pEC50 observed: 4.50

====

# experiment: Cytotoxicity against human Intestine 407 cells assessed as reduction in cell viability in presence of gentamicin and measured after 24 hrs by MTT assay
# Type: toxicity, cell-based
readout: CC50 at 24 h (µM)
Enter your answer as a number in µM; do not include the unit.

The reported value for Clc1ccc2c(c1)C(NCCN1CCNCC1)=Nc1ccccc1O2 in terms of CC50 at 24 h is 40.5

====

# experiment: Selectivity ratio of CC50 for cytotoxicity against mouse RAW264.7 cells to EC50 for antibacterial activity against intracellular multidrug-resistant Salmonella typhimurium ATCC14028 infected in mouse RAW264.7 cells
# Format: toxicity, cell-based
# condition.details: read-out: Ratio CC50/EC50
Below, each entry is listed with its recorded selectivity ratio.
Give your answer as a number; write no unit.

Take a look at these entries with their results.
mol: Oc1ccc(CCNC2=Nc3ccccc3Oc3ccc(Cl)cc32)cc1
readout: selectivity ratio
reported.value: 1.6
--
mol: CCCNC1=Nc2ccccc2Oc2ccc(Cl)cc21
readout: selectivity ratio
reported.value: 2

Per the records, this molecule ( Clc1ccc2c(c1)C(NCCCN1CCCCC1)=Nc1ccccc1O2 ) has selectivity ratio equal to 17.5

// recorded selectivity ratio for Clc1ccc2c(c1)C(NCc1ccccc1)=Nc1ccccc1O2 : 3.1

// selectivity ratio lookup, molecule = CN(C)CCNC1=Nc2ccccc2Oc2ccc(Cl)cc21 , result: 9.5

Consider Clc1ccc2c(c1)C(NCC1CC1)=Nc1ccccc1O2 . Its measured selectivity ratio is 1.8

For record Clc1ccc2c(c1)C(NCCc1cccnc1)=Nc1ccccc1O2 the listed selectivity ratio is 1.9

Record summary for Clc1ccc2c(c1)C(NCCN1CCNCC1)=Nc1ccccc1O2 : reported selectivity ratio = 60

Just so you know, measured selectivity ratio for Clc1ccc2c(c1)C(NCCN1CCCC1)=Nc1ccccc1O2 came out at 5.4

response.value for Clc1ccc2c(c1)C(NCCc1ccncc1)=Nc1ccccc1O2 (field: selectivity ratio) = 2.8

====

# experiment: Cytotoxicity against human monocytic THP-1 cells assessed as reduction in cell viability in presence of gentamicin and measured after 24 hrs by MTT assay
# Format: toxicity, cell-based
readout: CC50 at 24 h (µM)
// units = µM; emit number, no label

According to the records, this compound Clc1ccc2c(c1)C(NCCN1CCNCC1)=Nc1ccccc1O2 displays CC50 at 24 h of 28.4

====

# System: Salmonella typhi
# experiment: Antibacterial activity against Salmonella typhi infected in mouse RAW264.7 cells assessed as reduction in number of viable intracellular bacteria incubated for 24 hrs by CFU assay
# Assay type: functional, organism-based, Salmonella enterica subsp. enterica serovar Typhi
# condition.details: Salmonella enterica, RAW264.7, 24 h
readout: pEC50
Lab note: report pEC50 as minus log10 of the concentration in molar units, number only.

pEC50 measured on Clc1ccc2c(c1)C(NCCN1CCNCC1)=Nc1ccccc1O2 = 6.55

====

# experiment: Cytotoxicity against human HT-29 cells assessed as reduction in cell viability in presence of gentamicin and measured after 24 hrs by MTT assay
# Type: toxicity, cell-based
readout: CC50 at 24 h
The number alone won't do; follow it with the unit.

Noted for Clc1ccc2c(c1)C(NCCN1CCNCC1)=Nc1ccccc1O2 : its CC50 at 24 h reads 32.5 µM

====

# System: Salmonella typhimurium
# experiment: Antibacterial activity against intracellular multidrug-resistant Salmonella typhimurium ATCC14028 infected in mouse RAW264.7 cells assessed as reduction in intracellular bacterial survival level by RFP staining based high-content image analysis
# Format: functional, organism-based, Salmonella enterica subsp. enterica serovar Typhimurium
# condition.details: Salmonella enterica, ATCC14028, RAW264.7
pEC50: −log10 of the molar value.
Entry flag: T if pEC50 reaches 5; F if it does not.

Illustrative cases are given below, each with its answer.
molecule: Clc1ccc2c(c1)C(NCCc1cccnc1)=Nc1ccccc1O2
group.label: F

molecule: CN1CCCC1CCNC1=Nc2ccccc2Oc2ccc(Cl)cc21 (stereo not drawn)
group.label: T

molecule: Clc1ccc(CCNC2=Nc3ccccc3Oc3ccc(Cl)cc32)cc1
group.label: F

Decide: pEC50 of CC(C)CCNC1=Nc2ccccc2Oc2ccc(Cl)cc21 >= 5?
F

Assess whether reported pEC50 for CCCCCNC1=Nc2ccccc2Oc2ccc(Cl)cc21 sits at 5 or higher.
F

====

# experiment: Cytotoxicity against mouse RAW264.7 cells assessed as reduction in cell viability measured after 24 hrs by MTT assay
# Type: toxicity, cell-based
readout: CC50 at 24 h (µM)
Numbers only here, please. The scale is µM.

Entry Clc1ccc2c(c1)C(NCCN1CCNCC1)=Nc1ccccc1O2 ; CC50 at 24 h = 20.7

====

# Test system: Salmonella typhimurium
# experiment: Antibacterial activity against intracellular multidrug-resistant Salmonella typhimurium ATCC14028 infected in mouse RAW264.7 cells assessed as reduction in intracellular bacterial survival level by RFP staining based high-content image analysis
# Type: functional, organism-based, Salmonella enterica subsp. enterica serovar Typhimurium
# condition.details: Salmonella enterica, ATCC14028, RAW264.7
# reported EC50; entries follow

Completed entries (count: 3):
mol: Clc1ccc2c(c1)C(NCc1ccccc1)=Nc1ccccc1O2
EC50: 19.7 µM

mol: Fc1ccc(CCNC2=Nc3ccccc3Oc3ccc(Cl)cc32)cc1
EC50: 45.2 µM

mol: Oc1ccc(CCNC2=Nc3ccccc3Oc3ccc(Cl)cc32)cc1
EC50: 33.5 µM

Entry CCC(CC)NC1=Nc2ccccc2Oc2ccc(Cl)cc21 ; EC50 = 28.5 µM

For O=C(CNC1=Nc2ccccc2Oc2ccc(Cl)cc21)N1CCCC1 the compound record lists EC50 as > 90 µM

The reported EC50 of the compound Clc1ccc2c(c1)C(NCCc1ccncc1)=Nc1ccccc1O2 was 18.5 µM

====

# experiment: Cytotoxicity against mouse RAW264.7 cells assessed as reduction in number of cells by DAPI staining based high-content image analysis
# Assay type: toxicity, cell-based
readout: log10 CC50 (log10 of the value in µM)
Units before log transform: µM; reported quantity: CC50; transform: log10.

compound: Clc1ccc2c(c1)C(NCCCN1CCCCC1)=Nc1ccccc1O2
log10 CC50: 1.29
--
compound: Clc1ccc2c(c1)C(NCCc1ccccc1)=Nc1ccccc1O2
log10 CC50: 1.75
--
compound: Oc1ccc(CCNC2=Nc3ccccc3Oc3ccc(Cl)cc32)cc1
log10 CC50: 1.72
--
compound: Clc1ccc2c(c1)C(NCCN1CCNCC1)=Nc1ccccc1O2
log10 CC50: 1.37
--
compound: Clc1ccc2c(c1)C(NCC1CC1)=Nc1ccccc1O2
log10 CC50: 1.90
--
compound: Clc1ccc2c(c1)C(N1CCNCC1)=Nc1ccccc1O2
log10 CC50: 2.03
--
compound: Clc1ccc2c(c1)C(NCCc1ccncc1)=Nc1ccccc1O2
log10 CC50: 1.71
--
compound: CCCCCNC1=Nc2ccccc2Oc2ccc(Cl)cc21
log10 CC50: 1.86

Lookup result for CN1CCCC1CCNC1=Nc2ccccc2Oc2ccc(Cl)cc21 (stereo not given) ; measured log10 CC50: 1.36

# log10 CC50 (compound: Clc1ccc2c(c1)C(NCCN1CCCCC1)=Nc1ccccc1O2 ) is 1.35

Per the records, this compound ( Clc1ccc2c(c1)C(NCCN1CCOCC1)=Nc1ccccc1O2 ) has log10 CC50 equal to 1.93

====

# Test system: Salmonella typhimurium
# experiment: Antibacterial activity against intracellular multidrug-resistant Salmonella typhimurium ATCC14028 infected in mouse RAW264.7 cells assessed as reduction in intracellular bacterial survival level by RFP staining based high-content image analysis
# Assay type: functional, organism-based, Salmonella enterica subsp. enterica serovar Typhimurium
# condition.details: Salmonella enterica, ATCC14028, RAW264.7
Assign labels as follows, please: fulfilled for EC50 below 5 µM; not fulfilled for EC50 equal to or exceeding 5 µM.

mol: Clc1ccc2c(c1)C(NCCN1CCCCC1)=Nc1ccccc1O2
target.desc: Salmonella typhimurium
group.label: fulfilled

Please check: EC50 for CN(C)CCNC1=Nc2ccccc2Oc2ccc(Cl)cc21 , strictly under 5 µM or not?
fulfilled

Regarding Clc1ccc2c(c1)C(NCCc1ccccc1)=Nc1ccccc1O2 , kindly confirm whether its EC50 is beneath 5 µM.
not fulfilled
